- Organism: Homo sapiens
- Test method notes: Selectivity for human A2B receptor over human A2A receptor
Quantity: Ratio Ki

1. O=c1[nH]c2nc(-c3cnn(Cc4noc(-c5ccc(Cl)cc5)n4)c3)[nH]c2c(=O)n1CC1CC1 :: > 100
2. CCCn1c(=O)[nH]c2nc(-c3cnn(Cc4cccc(F)c4)c3)[nH]c2c1=O :: 160
3. O=c1[nH]c2nc(-c3cnn(Cc4cc(-c5ccc(C(F)(F)F)cc5)on4)c3)[nH]c2c(=O)n1CC1CC1 :: > 300
4. CC(C)Cn1c(=O)[nH]c2nc(-c3cnn(Cc4cccc(C(F)(F)F)c4)c3)[nH]c2c1=O :: > 180
5. CCCn1c(=O)[nH]c2nc(-c3cnn(Cc4noc(-c5ccccc5)n4)c3)[nH]c2c1=O :: > 300
6. CCCn1c(=O)c2[nH]c(-c3cnn(Cc4ccccc4)c3)nc2n(CCC)c1=O :: 26
7. CC(C)Cn1c(=O)[nH]c2nc(-c3cnn(Cc4cc(-c5ccccc5)on4)c3)[nH]c2c1=O :: > 410
8. CCCn1c(=O)[nH]c2nc(-c3cnn(Cc4noc(-c5ccc(C(F)(F)F)cc5)n4)c3)[nH]c2c1=O :: > 300
9. CCCn1c(=O)c2[nH]c(-c3cnn(Cc4noc(-c5ccccc5)n4)c3)nc2n(CCC)c1=O :: 85

----------
# Ratio Ki annotations
- Species: Homo sapiens
- Test method notes: Selectivity for human A2B receptor over human A1 receptor
Quantity: Ratio Ki

1. O=c1[nH]c2nc(-c3cnn(Cc4noc(-c5ccc(C(F)(F)F)cc5)n4)c3)[nH]c2c(=O)n1CC1CC1 :: > 460
2. CCn1c(=O)[nH]c2nc(-c3cnn(Cc4cccc(F)c4)c3)[nH]c2c1=O :: > 80
3. CCn1c(=O)[nH]c2nc(-c3cnn(Cc4cccc(C(F)(F)F)c4)c3)[nH]c2c1=O :: > 1000
4. CCCn1c(=O)[nH]c2nc(-c3cnn(Cc4noc(-c5ccccc5)n4)c3)[nH]c2c1=O :: 200
5. O=c1[nH]c2nc(-c3cnn(Cc4noc(-c5ccc(Cl)cc5)n4)c3)[nH]c2c(=O)n1CC1CC1 :: > 120

----------
Target chain: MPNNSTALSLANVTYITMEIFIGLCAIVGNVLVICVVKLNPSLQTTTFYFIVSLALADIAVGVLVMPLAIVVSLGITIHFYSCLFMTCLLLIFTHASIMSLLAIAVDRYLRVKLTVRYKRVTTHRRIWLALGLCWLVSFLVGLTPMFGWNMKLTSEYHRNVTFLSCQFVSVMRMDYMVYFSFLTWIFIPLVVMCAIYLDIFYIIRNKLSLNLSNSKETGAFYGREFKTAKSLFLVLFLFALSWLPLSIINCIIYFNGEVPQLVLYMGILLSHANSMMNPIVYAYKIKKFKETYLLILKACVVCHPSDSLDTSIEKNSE
pKi: −log10 of the molar value.
Quantity: pKi

1. CCCn1c(=O)[nH]c2nc(-c3cnn(Cc4cccc(F)c4)c3)[nH]c2c1=O :: 6.80
2. O=c1[nH]c2nc(-c3cnn(Cc4cccc(C(F)(F)F)c4)c3)[nH]c2c(=O)n1CC1CC1 :: 6.00
3. CCCCn1c(=O)[nH]c2nc(-c3cnn(Cc4ccccc4)c3)[nH]c2c1=O :: 6.96
4. O=c1[nH]c2nc(-c3cnn(Cc4ccccc4)c3)[nH]c2c(=O)n1CC1CC1 :: 6.74
